FYI, the data here is from PubChem BioAssay (NCI).

# System: SK-OV-3 ovarian
# assay-comment: NCI tumour cell line growth inhibition, 48 h
value-kind: GI50

{"smiles-string": "COc1ccc2c(c1)c(-c1ccc(-c3cn(C)c4ccc(OC)cc34)o1)cn2C", "experimental-system": "SK-OV-3 ovarian", "value-kind": "GI50", "experimental-result": "> 100 µM"}
{"smiles-string": "N.N.NCCCCCN.O=C([O-])CC(=O)[O-].O=C([O-])CC(=O)[O-].[Pt+4].[Pt+4]", "experimental-system": "SK-OV-3 ovarian", "value-kind": "GI50", "experimental-result": "> 100 µM"}
{"smiles-string": "CN1CCN(c2ccc(-c3cccc(CN4CCOCC4)c3)cc2NC(=O)c2c[nH]c(=O)cc2C(F)(F)F)CC1", "experimental-system": "SK-OV-3 ovarian", "value-kind": "GI50", "experimental-result": "> 100 µM"}
{"smiles-string": "CC(C)=CCc1c(O)c(C(=O)CC(C)C)c(O)c2c(-c3ccccc3)cc(=O)oc12", "experimental-system": "SK-OV-3 ovarian", "value-kind": "GI50", "experimental-result": "10.3 µM"}
{"smiles-string": "COc1cc2c(cc1OC)-c1ncc3cc(OC)c(OC)cc3c1C2", "experimental-system": "SK-OV-3 ovarian", "value-kind": "GI50", "experimental-result": "> 50 µM"}
{"smiles-string": "CC(C)c1cc(C(=O)[O-])c(O)c(C(C)C)c1.CC(C)c1cc(C(=O)[O-])c(O)c(C(C)C)c1.CC(C)c1cc(C(=O)[O-])c(O)c(C(C)C)c1.CC(C)c1cc(C(=O)[O-])c(O)c(C(C)C)c1.CC(C)c1cc(C(=O)[O-])c(O)c(C(C)C)c1.CC(C)c1cc(C(=O)[O-])c(O)c(C(C)C)c1.[Cu+2].[Mn+2].[Mn+2]", "experimental-system": "SK-OV-3 ovarian", "value-kind": "GI50", "experimental-result": "2.61 µM"}
{"smiles-string": "O=C(Nc1ccc(N2CCNCC2)cn1)c1[nH]ncc1Nc1ncnc2sccc12", "experimental-system": "SK-OV-3 ovarian", "value-kind": "GI50", "experimental-result": "10.6 µM"}
